These data points were gathered from ChEMBL document CHEMBL1144972.

Recorded measurements of MIC, one per entry
# System: Staphylococcus aureus
# ASSAY_NAME: Minimum inhibitory concentration against Staphylococcus aureus AS5155
# Format: functional
Respond with the bare value in µg/mL.

Reference set, count: 3
Cc1ccc(N2CCN(c3cc4c(ncc5c4c(=O)c(C(=O)O)cn5C)c(F)c3Cl)CC2)cc1F    1
C/C(=C\C(=O)OCCCCCCCCC(=O)O)C[C@@H]1OC[C@H](C[C@@H]2O[C@H]2[C@@H](C)[C@H](C)O)[C@@H](O)[C@H]1O    1
Cn1cc(C(=O)O)c(=O)c2c3ccc(F)c(N4CCN(c5cccc(C(F)(F)F)c5)CC4)c3ncc21    4

MIC reported for this molecule Cc1ccc(N2CCN(c3ccc4c(ncc5c4c(=O)c(C(=O)O)cn5C)c3F)CC2)cc1F : 2

MIC reported for this molecule C[N+](C)(C)CCO.Cn1cc(C(=O)[O-])c(=O)c2cc3cc(F)c(N4CCN(c5ccc(F)cc5)CC4)cc3nc21 : 2

MIC reported for this molecule Cn1cc(C(=O)O)c(=O)c2c3cc(N4CCN(c5ccc(Cl)c(F)c5)CC4)c(Cl)c(F)c3ncc21 : 1

MIC reported for this molecule CCn1cc(C(=O)O)c(=O)c2cc(F)c(N3CCN(C)CC3)cc21 : 64

MIC reported for this molecule Cn1cc(C(=O)O)c(=O)c2c3cc(F)c(N4CCCC(C)(C)C4)cc3ncc21 : 4

MIC reported for this molecule Cn1cc(C(=O)O)c(=O)c2c3cc(N4C[C@@]5(C)C[C@@H]4CC(C)(C)C5)c(F)cc3ncc21 : 2
